- Test system: pERK in MKN1 cells
- EXPERIMENT DESCRIPTION: Inhibition of KRas phosphorylation of ERK (Cisbio HTRF pERK assay)
- CONDITION DETAILS: Homo sapiens, MKN-1, 3 h, read-out: Inhibition (HTRF IC50) of KRas-mediated Phosphorylation of ERK, MKN1
QUANTITY MEASURED: IC50 (nM)

>>> df
                                   molecule       system_tested  quantity_measured  meas_value
0  CCc1c(F)ccc2cc(O)cc(-c3ncc4c(N5CCCCC(S(C)(=O)=O)C5)nc(OC[C@@]56CCCN5C[C@H](F)C6)nc4c3F)c12 (stereo partly drawn)  pERK in MKN1 cells               IC50          40

I = CCc1c(F)ccc2cc(O)cc(-c3ncc4c(N5CC6C(=O)NC(=O)C6(C)C5)nc(OC[C@@]56CCCN5C[C@H](F)C6)nc4c3F)c12 (stereo partly drawn)
II = O=C1CC2(CCCN(c3nc(OC[C@@]45CCCN4C[C@H](F)C5)nc4c(F)c(-c5cc(O)cc6ccc(F)c(F)c56)ncc34)C2)N1 (stereo partly drawn)
III = CCc1c(F)ccc2cc(O)cc(-c3ncc4c(N5CCCn6nc(CO)cc6C5)nc(OC[C@@]56CCCN5C[C@H](F)C6)nc4c3F)c12
IV = CCc1c(F)ccc2cc(O)cc(-c3ncc4c(N5CCC[C@]6(CC(=O)N6)C5)nc(OC[C@@]56CCCN5C[C@H](F)C6)nc4c3F)c12 (single isomer, unassigned)
### Prompt Rank ascending by IC50. Reply with the item labels sorted in the order that was asked for.
### Response IV, I, II, III

###

- System: pERK in PSN1 cells
- EXPERIMENT DESCRIPTION: Inhibition of KRas phosphorylation of ERK (Cisbio HTRF pERK assay)
- CONDITION DETAILS: Homo sapiens, PSN1, 3 h, read-out: Inhibition (HTRF IC50) of KRas-mediated Phosphorylation of ERK, PSN1
QUANTITY MEASURED: IC50 (µM)

COMPOUND	QUANTITY UNIT	IC50
O=C1NC(=O)C2(CCCN(c3nc(OC[C@@]45CCCN4C[C@H](F)C5)nc4c(F)c(-c5cc(O)cc6ccc(F)c(Br)c56)ncc34)C2)N1 (stereo partly drawn)	µM	3.15

1 = CCc1c(F)ccc2cc(O)cc(-c3ncc4c(N5CCC[C@@]6(CNC(=O)N6)C5)nc(OC[C@@]56CCCN5C[C@H](F)C6)nc4c3F)c12
2 = CCc1c(F)ccc2cc(O)cc(-c3ncc4c(N5CCC[C@@H](O)[C@@H]5C)nc(OC[C@@]56CCCN5C[C@H](F)C6)nc4c3F)c12
### Prompt Compare IC50: is it lower for 1 or for 2 ? Pick one and reply with its label.
### Response 1

A = O=S1(=O)NCC2(CCCN(c3nc(OC[C@@]45CCCN4C[C@H](F)C5)nc4c(F)c(-c5cc(O)cc6ccc(F)c(Cl)c56)ncc34)C2)N1 (stereo partly drawn)
B = CCc1c(F)ccc2cc(O)cc(-c3ncc4c(N5CCC[C@]6(C5)C[C@@H](O)C6)nc(OC[C@@]56CCCN5C[C@H](F)C6)nc4c3F)c12 (single isomer, unassigned)
C = O=C1NCC12CCCN(c1nc(OC[C@@]34CCCN3C[C@H](F)C4)nc3c(F)c(-c4cc(O)cc5ccc(F)c(Cl)c45)ncc13)C2 (stereo partly drawn)
### Prompt Rank ascending by IC50. Reply with the item labels sorted in the order that was asked for.
### Response A, B, C
(A: 0.11 µM, B: 1.44 µM, C: 2.81 µM)

###

- SYSTEM TESTED: KRas G12D (Homo sapiens, UniProt P01116, G12D)
- Sequence (P01116 1-169 isoform P01116-2 G12D): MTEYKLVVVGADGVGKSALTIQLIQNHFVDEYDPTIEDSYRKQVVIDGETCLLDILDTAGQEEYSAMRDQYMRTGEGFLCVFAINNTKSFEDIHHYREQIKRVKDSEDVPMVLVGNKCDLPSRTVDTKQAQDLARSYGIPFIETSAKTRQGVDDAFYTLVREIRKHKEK
- EXPERIMENT DESCRIPTION: biochemical
QUANTITY MEASURED: IC50 (nM)

COMPOUND	SYSTEM TESTED	QUANTITY UNIT	IC50
Fc1c(-c2cccc3cccc(F)c23)ncc2c(NCc3cn[nH]c3)nc(OCC34CCCN3CCC4)nc12 [Example 93]	KRas G12D (Homo sapiens, UniProt P01116, G12D)	nM	83600

A = C#Cc1c(F)ccc2cccc(-c3ncc4c(N5CCC[C@@](C)(O)C5)nc(OC[C@@]56CCCN5C[C@H](F)C6)nc4c3F)c12 [Example 51]
B = Cc1cc(N)nc(-c2ncc3c(N4CCCC(C)(O)C4)nc(OC[C@@]45CCCN4C[C@H](F)C5)nc3c2F)c1C(F)(F)F (stereo partly shown) [Example 459]
### Prompt Compare IC50: is it lower for A or for B ? Pick one and reply with its label.
### Response A
(A: 21 nM, B: 537 nM)

I = OC1CCC12CCCN(c1nc(OCC34CCCN3CCC4)nc3c(F)c(-c4cccc5cccc(F)c45)ncc13)C2 (stereo not shown) [Example 233]
II = Nc1ncccc1CNc1nc(OCC23CCCN2CCC3)nc2c(F)c(-c3cccc4cccc(F)c34)ncc12 [Example 70]
III = C#Cc1c(F)ccc2cc(O)cc(-c3ncc4c(N5CCCC6(CC(=O)N6)C5)nc(OC[C@@]56CCCN5C[C@H](F)C6)nc4c3F)c12 (stereo partly shown) [Example 148]
### Prompt Rank ascending by IC50. Reply with the item labels sorted in the order that was asked for.
### Response III, I, II
(III: 3 nM, I: 6700 nM, II: 14100 nM)

I = O=C1CC2(CCCCN(c3nc(OCC45CCCN4CCC5)nc4c(F)c(-c5cccc6cccc(F)c56)ncc34)C2)N1 (stereo not shown) [Example 266]
II = O=C(c1cc2n(n1)CCCN(c1nc(OCC34CCCN3CCC4)nc3c(F)c(-c4cccc5cccc(F)c45)ncc13)C2)N1CCOCC1 [Example 276]
III = CCc1c(F)ccc2cc(O)cc(-c3ncc4c(NCC5CC(=O)N5)nc(OC[C@@]56CCCN5C[C@H](F)C6)nc4c3F)c12 (single isomer, unassigned) [Example 373]
### Prompt Rank ascending by IC50. Reply with the item labels sorted in the order that was asked for.
### Response III, II, I

P = CCc1cccc2cccc(-c3ncc4c(N5CCOCC(CO)C5)nc(OCC56CCCN5CCC6)nc4c3F)c12 (stereo not shown) [Example 289]
Q = CCc1c(F)ccc2cc(O)cc(-c3ncc4c(NCC5CNC(=O)N5)nc(OC[C@@]56CCCN5C[C@H](F)C6)nc4c3F)c12 (stereo partly shown) [Example 370]
### Prompt Higher IC50: P or Q ? Pick one and reply with its label.
### Response P

###

- SYSTEM TESTED: KRas G12D (Homo sapiens, UniProt P01116, G12D);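 also: TR-FRET displacement binding assay on KRas, read after a one-hour incubation at room temperature, IC50 fitted from percent-of-control values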
- EXPERIMENT DESCRIPTION: biochemical
pIC50: −log10 of the molar value.
QUANTITY MEASURED: pIC50

Worked set:
                                   compound  meas_value
0  CN1CCC[C@H]1COc1nc(N2CCOCC2)c2cnc(-c3cc(O)cc4ccccc34)c(F)c2n1        4.78
1  O=C1NC2(CCCN(c3nc(OCC45CCCN4CCC5)nc4c(F)c(-c5cccc6cccc(F)c56)ncc34)C2)CO1 (stereo not drawn)        5.91
2  O=C1CC2(CCCN(c3nc(OCC45CCCN4CCC5)nc4c(F)c(-c5cccc6cccc(CF)c56)ncc34)C2)N1 (stereo not drawn)        5.54
3  Cc1cc2sc(N)nc2c(-c2ncc3c(N4CCCC(C)(O)C4)nc(OC[C@@]45CCCN4C[C@H](F)C5)nc3c2F)c1C (stereo partly drawn)        4.90
4  NC(=O)N1CC(Nc2nc(OCC34CCCN3CCC4)nc3c(F)c(-c4cccc5cccc(Cl)c45)ncc23)C1        4.97
5  CCc1c(F)ccc2cc(O)cc(-c3ncc4c(NCCC5CNC(=O)N5)nc(OC[C@@]56CCCN5C[C@H](F)C6)nc4c3F)c12 (stereo partly drawn)        8.05
6  C[C@@H]1C[C@@H]1c1c(Cl)cc(O)cc1-c1ncc2c(N3CCCC(C)(O)C3)nc(OCC34CCCN3CCC4)nc2c1F (stereo partly drawn)        8.05
7  C[C@@]1(O)CCCN(c2nc(OC[C@@]34CCCN3C[C@H](F)C4)nc3c(F)c(-c4c5ccccc5cc5[nH]ncc45)ncc23)C1        7.48

a = O=c1[nH][nH]cc1CNc1nc(OCC23CCCN2CCC3)nc2c(F)c(-c3cccc4cccc(F)c34)ncc12
b = CCc1c(F)ccc2cc(O)cc(-c3ncc4c(N5CCC[C@]6(C5)C[C@@](C)(O)C6)nc(OCC56CCCN5CCC6)nc4c3F)c12
### Prompt Higher pIC50: a or b ? Pick one and reply with its label.
### Response b
(b: 5.18, a: 4.41)

I = O=S1(=O)CC[C@H](CNc2nc(OCC34CCCN3CCC4)nc3c(F)c(-c4cccc5cccc(F)c45)ncc23)N1
II = CC1(O)CCCN(c2nc(OCC34CCCN3CCC4)nc3c(F)c(-c4cccc5ccccc45)ncc23)C1 (stereo not drawn)
### Prompt Higher pIC50: I or II ? Pick one and reply with its label.
### Response II

P = CCc1c(F)ccc2cc(O)cc(-c3ncc4c(N5CCC6C(=O)NC(=O)C6C5)nc(OC[C@@]56CCCN5C[C@H](F)C6)nc4c3F)c12 (stereo partly drawn)
Q = Fc1c(-c2cccc3cccc(F)c23)ncc2c(N3CC=CCC3)nc(OCC34CCCN3CCC4)nc12
### Prompt Compare pIC50: is it lower for P or for Q ? Pick one and reply with its label.
### Response Q
(Q: 5.35, P: 7.85)

I = CC1CC(O)CCN(c2nc(OCC34CCCN3CCC4)nc3c(F)c(-c4cccc5cccc(F)c45)ncc23)C1 (stereo not drawn)
II = OC1CC2CC(C1)N(c1nc(OCC34CCCN3CCC4)nc3c(F)c(-c4cccc5cccc(F)c45)ncc13)C2 (stereo not drawn)
### Prompt Compare pIC50: is it lower for I or for II ? Pick one and reply with its label.
### Response II
(II: 4.81, I: 5.48)
